Target: HLA-B*39:01
Experiment: IEDB peptide-MHC binding, purified MHC/competitive/fluorescence; filed as Kd, often an IC50 or EC50 that approximates it; bounds were set here for any values at or beyond the usual limits of such assays
Details: source organism: Influenza A virus (A/swine/Italy/1513-1/1998(H1N1))
Result Type: Kd

-- ask Fill in the blank: the reported Kd of MMWEINGPK is ____.
-- reply ≥ 20 µM

----------
Target: HLA-C*06:02
Experiment: IEDB peptide-MHC binding, purified MHC/direct/fluorescence; filed as Kd, often an IC50 or EC50 that approximates it; bounds were set here for any values at or beyond the usual limits of such assays
Conditions: source organism: Influenza A virus (A/Waikato/7/2000(H3N2))
Result Type: Kd (nM)
Field format: number, assumed nM, no unit text.

-- ask Fill in the blank: the reported Kd of YRTLLMNEL is ____.
-- reply 9
